- assay-target: human A3ARs (Homo sapiens (Human), UniProt P0DMS8)
- Sequence (P0DMS8 whole entry): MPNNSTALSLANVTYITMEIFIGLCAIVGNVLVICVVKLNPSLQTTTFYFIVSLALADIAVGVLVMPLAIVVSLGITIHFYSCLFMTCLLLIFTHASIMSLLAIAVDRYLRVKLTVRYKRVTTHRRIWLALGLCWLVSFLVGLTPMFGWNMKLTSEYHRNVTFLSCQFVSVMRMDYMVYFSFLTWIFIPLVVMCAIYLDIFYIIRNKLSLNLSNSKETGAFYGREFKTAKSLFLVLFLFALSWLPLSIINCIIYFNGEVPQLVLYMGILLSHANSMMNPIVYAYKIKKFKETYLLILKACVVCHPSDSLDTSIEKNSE
- assay-comment: Cyclic AMP accumulation assay, efficacy at hA3AR
- Assay type: cell-based
- measurement-context: compared to maximal effect by 2-Cl-IB-MECA alone (control = 100%)
readout-label: % Increase of efficacy at hA3AR at 10 μM (%)

>>> result_value("c1ccc2c(c1)nc(Nc1ccc3cn[nH]c3c1)c1nc(C3CCCC3)[nH]c12")
96
>>> result_value("Cc1ccc(Nc2nc3ccccc3c3[nH]c(C4CCCC4)nc23)cc1")
128
>>> result_value("Clc1ccc(Nc2nc3ccccc3c3[nH]cnc23)cc1Cl")
92
>>> result_value("CCCCCc1nc2c(Nc3ccc(Cl)c(Cl)c3)nc3ccccc3c2[nH]1")
102
>>> result_value("c1ccc2c(c1)nc(Nc1ccc3cc[nH]c3c1)c1nc(C3CCCC3)[nH]c12")
125
